B1: POLD4 (parent)
chain: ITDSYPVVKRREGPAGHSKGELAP

variants of: B1; test: protein stability index of a GFP-peptide fusion (GPS, HEK-293T) (PSI 1-6); higher = more stable; settings: c terminus: a fixed tail appended;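 note: lentivirally expressed fusions sorted by FACS into six bins by GFP to DsRed ratio, PSI derived from sequencing read proportions per bin multiplied by bin number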
Parameter threshold = 3. Response is TRUE when protein stability index meets or exceeds it, else FALSE.

Reference set, count: 10
E12Q ... TRUE
G20N ... TRUE
S18R ... TRUE
P14R ... FALSE
K9G ... TRUE
D3C ... FALSE
P24V ... FALSE
S18I ... TRUE
V7L ... TRUE
V8W ... TRUE

Check the entry `S18E` : does protein stability index equal or exceed 3?
TRUE

Check the entry `E12L` : does protein stability index equal or exceed 3?
FALSE

Check the entry `E12C` : does protein stability index equal or exceed 3?
FALSE

Check the entry `L22E` : does protein stability index equal or exceed 3?
TRUE

Check the entry `G13N` : does protein stability index equal or exceed 3?
FALSE

Check the entry `D3L` : does protein stability index equal or exceed 3?
FALSE

Check the entry `P24F` : does protein stability index equal or exceed 3?
TRUE

Where these numbers come from: the supplement of paper PMC10567573
